Recorded measurements of MNTC at 72 h, one per entry
assay_procedure: Cytotoxicity against human THP1 cells after 72 hrs by MTT assay
Assay type: cell-based, THP-1
study_conditions: read-out: NOAEL

- molecule_smiles: "Nc1nc2ccc(SCc3ccc(C(=O)NCc4ccccc4)cc3)cc2s1"
  measured: "10 to 25 µM"
- molecule_smiles: "COC(=O)c1ccc(COc2ccc3nc(N)sc3c2)cc1"
  measured: "10 to 25 µM"
- molecule_smiles: "COC(=O)C1CCN(C(=O)c2ccc(CS(=O)(=O)c3ccc4nc(N)sc4c3)cc2)CC1"
  measured: "> 25 µM"

So what's the measured MNTC at 72 h for this one? Nc1nc2ccc(C(=O)NC(c3ccccc3)c3ccccc3)cc2s1
> 25 µM

Now the molecule Nc1nc2c(O)cc(C(=O)NCc3ccccc3)cc2s1
> 25 µM

Now the molecule Nc1nc2ccc(C(=O)NCCc3c[nH]c4ccccc34)cc2s1
> 25 µM
